Measured IC50 values are reported for all entries that follow.
- measurement target: cephalosporinase (Pseudomonas aeruginosa)
- Construct: nitrocefin as substrate; purification not described
- Sequence (P24735 27-397): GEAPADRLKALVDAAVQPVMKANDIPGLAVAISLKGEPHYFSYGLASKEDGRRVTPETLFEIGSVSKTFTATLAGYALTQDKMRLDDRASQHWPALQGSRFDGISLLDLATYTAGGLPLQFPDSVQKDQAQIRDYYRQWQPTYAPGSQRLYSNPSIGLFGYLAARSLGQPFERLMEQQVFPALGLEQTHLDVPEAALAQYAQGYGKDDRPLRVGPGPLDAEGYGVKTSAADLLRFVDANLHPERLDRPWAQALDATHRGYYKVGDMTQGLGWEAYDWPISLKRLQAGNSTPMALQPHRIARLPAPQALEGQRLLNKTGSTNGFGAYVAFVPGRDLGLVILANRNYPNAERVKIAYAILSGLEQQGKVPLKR
- assay explanation: β-lactamase inhibitory activity, spectrophotometric rate assay with nitrocefin as substrate
Where a name gives a salt, the structure may show the parent alone.
measurement name: IC50

{"molecule": "C[C@H]1[C@H](NC(=O)/C(=N/OCCNC(=O)/C(=N\\OCc2cc(=O)c(O)cn2O)c2csc(N)n2)c2cccs2)C(=O)N1S(=O)(=O)O", "result": "6 nM"}
{"molecule": "C[C@H]1[C@H](NC(=O)/C(=N/OC(C)(C)C(=O)O)c2csc(N)n2)C(=O)N1S(=O)(=O)O", "result": "2000 nM"}
{"molecule": "C=CCC(O/N=C(/C(=O)N[C@@H]1C(=O)N(S(=O)(=O)O)[C@H]1C)c1cccs1)c1cc(=O)c(O)cn1O (stereo partly drawn)", "result": "50 nM"}
{"molecule": "CC(O/N=C(/C(=O)N[C@@H]1C(=O)N(S(=O)(=O)O)[C@H]1C)c1cccs1)c1cc(=O)c(O)cn1O (stereo partly drawn)", "result": "60 nM"}
{"molecule": "C[C@H]1[C@H](NC(=O)/C(=N/OCC(N)COC(=O)/C(=N\\OCc2cc(=O)c(O)cn2O)c2cccs2)c2cccs2)C(=O)N1S(=O)(=O)O (stereo partly drawn)", "result": "4.5 nM"}
{"molecule": "C[C@H]1[C@H](NC(=O)/C(=N/OCc2cc(=O)c(O)cn2O)c2cccn2C)C(=O)N1S(=O)(=O)O", "result": "900 nM"}
{"molecule": "C[C@H]1[C@H](NC(=O)/C(=N\\OCc2cc(=O)c(O)cn2O)c2cccs2)C(=O)N1S(=O)(=O)O", "result": "40 nM"}
{"molecule": "C[C@H]1[C@H](NC(=O)/C(=N/OCCNC(=O)c2cc(=O)c(O)c[nH]2)c2cccs2)C(=O)N1S(=O)(=O)O", "result": "10 nM"}
{"molecule": "C[C@H]1[C@H](NC(=O)/C(=N\\OC(C)(C)C(=O)O)c2csc(N)n2)C(=O)N1S(=O)(=O)O", "result": "130 nM"}
{"molecule": "C[C@H]1[C@H](NC(=O)/C(=N/OCCSCc2cc(=O)c(O)cn2O)c2cccs2)C(=O)N1S(=O)(=O)O", "result": "60 nM"}
{"molecule": "C[C@H]1[C@H](NC(=O)/C(=N/OC(c2ccc(F)cc2)c2cc(=O)c(O)cn2O)c2cccs2)C(=O)N1S(=O)(=O)O (stereo partly drawn)", "result": "100 nM"}
{"molecule": "C[C@H]1[C@H](NC(=O)/C(=N/OCc2cc(=O)c(O)c[nH]2)c2cccs2)C(=O)N1S(=O)(=O)O [Compound 14, potassium salt]", "result": "40 nM"}
{"molecule": "C[C@H]1[C@H](NC(=O)/C(=N/OCc2cc(=O)c(O)cn2O)c2cccs2)C(=O)N1S(=O)(=O)O [Compound 1]", "result": "60 nM"}
{"molecule": "C[C@H]1[C@H](NC(=O)/C(=N/OCCNC(=O)/C(=N/OCc2cc(=O)c(O)cn2O)c2cccs2)c2cccs2)C(=O)N1S(=O)(=O)O", "result": "1 nM"}
{"molecule": "C[C@H]1[C@H](NC(=O)/C(=N/OCc2cc(=O)c(O)cn2O)c2cccs2)C(=O)N1S(=O)(=O)O [Compound 2]", "result": "40 nM"}
{"molecule": "C[C@H]1[C@H](NC(=O)/C(=N/OCCNC(=O)/C(=N\\OCc2cc(=O)c(O)cn2O)c2cccs2)c2cccs2)C(=O)N1S(=O)(=O)O", "result": "6 nM"}
{"molecule": "C/C(=N/OCc1cc(=O)c(O)cn1O)C(=O)NCCO/N=C(/C(=O)N[C@@H]1C(=O)N(S(=O)(=O)O)[C@H]1C)c1cccs1", "result": "50 nM"}
{"molecule": "C[C@H]1[C@H](NC(=O)/C(=N/OCc2cc(=O)c(O)cn2O)c2cccs2)C(=O)N1S(=O)(=O)O [Compound 3]", "result": "10 nM"}

Source of measurements: patent US5888998A
